tested on: SNB-75 CNS; assay: NCI tumour cell line growth inhibition, 48 h
MEASUREMENT NAME: TGI

Suppose we examine the compound O=C1C(Cl)C2(CC(/C=C/c3cccs3)=NN2c2cccc(S(=O)(=O)O)c2)N1c1nc2ccccc2s1 (stereo not drawn) ; what TGI value has been reported?
> 100 µM

And what about the compound COc1ccc(/C(Cl)=C(\CN(C)C)c2ccc(OC)c(OC)c2)cc1OC ?
> 100 µM

And what about the compound COc1cc2nn(-c3ccccc3)nc2c2nonc12 ?
> 100 µM

---

# TGI values compiled below
test system: MDA-MB-231 breast; test: NCI tumour cell line growth inhibition, 48 h

{"STRUCTURE AS SMILES": "COc1cc2c(cc1OCCCN1CCN(C)CC1)N=C[C@@H]1CCCN1C2=O", "TGI": "22.3 µM"}

Suppose we examine the compound ONCCCn1cnc2c(NC3CC3)ncnc21 ; what TGI value has been reported?
> 100 µM

And what about the compound CCCCC(=O)OC[n+]1ccc(-c2c(COC(=O)NC(C)C)c(COC(=O)NC(C)C)c3n2CCC3)cc1 ?
> 100 µM

And what about the compound Cc1cc(N(CCC#N)CCC#N)ccc1/C=N/NC(=O)c1ccccc1 ?
> 81.3 µM

---

# TGI values compiled below
tested on: OVCAR-8 ovarian; experiment: NCI tumour cell line growth inhibition, 48 h

// solved cases for TGI follow
{"COMPOUND": "COc1ccc(OC)c(C#N)c1C#N (tested in a mixture with another compound)", "ASSAYED SYSTEM": "OVCAR-8 ovarian", "VALUE": "> 100 µM"}
{"COMPOUND": "CCCCC(=O)OC[n+]1ccc(-c2c(COC(=O)NC(C)C)c(COC(=O)NC(C)C)c3n2CCC3)cc1", "ASSAYED SYSTEM": "OVCAR-8 ovarian", "VALUE": "> 100 µM"}

Now for another entry.
Suppose we examine the compound OCCN(CCO)c1ccc2c(-c3ccccc3)cc(N(CCO)CCO)nc2n1 ; what TGI value has been reported?
> 100 µM

---

# TGI values compiled below
system: OVCAR-4 ovarian; assay: NCI tumour cell line growth inhibition, 48 h
Number only, in µM; omit the unit.

// solved cases for TGI follow
{"STRUCTURE AS SMILES": "Clc1ccccc1/C=C/c1ccnc2ccccc12", "UNIT ABBREV": "µM", "TGI": 31.3}
{"STRUCTURE AS SMILES": "Cc1cccc2c(NCCCN(C)C)c3c([N+](=O)[O-])ccc(C)c3nc12", "UNIT ABBREV": "µM", "TGI": 0.554}

Now for another entry.
Suppose we examine the compound S=C(S)N1CCCCC1 ; what TGI value has been reported?
295

---

tested on: UACC-62 melanoma; assay: NCI tumour cell line growth inhibition, 48 h
MEASUREMENT NAME: log10 of TGI (log10 of the value in µM)
Response schema: value (number) is log10 of TGI in units of µM.

// solved cases for log10 of TGI follow
{"COMPOUND": "COc1cc(OC)c(/C=C/c2cc[n+](C)c3ccccc23)c(OC)c1", "MEASUREMENT NAME": "log10 of TGI", "VALUE": 0.75}
{"COMPOUND": "Cc1cc2cn3c4ccc(O)cc4nc(N)c3c2cc1C", "MEASUREMENT NAME": "log10 of TGI", "VALUE": 0.12}
{"COMPOUND": "Clc1ccc(Cn2c(CN3CCCC3)nc3ccccc32)cc1", "MEASUREMENT NAME": "log10 of TGI", "VALUE": 1.67}
{"COMPOUND": "O=C1C=C(Nc2ccc(Br)cc2)c2ccccc2C1=O", "MEASUREMENT NAME": "log10 of TGI", "VALUE": 1.18}
{"COMPOUND": "C[CH2][Sn]([CH2]C)([O]C(=O)c1c(F)cccc1F)[O][Sn]([CH2]C)([CH2]C)[O]C(=O)c1c(F)cccc1F", "MEASUREMENT NAME": "log10 of TGI", "VALUE": 1.50}

Suppose we examine the compound O=S(O)CCCCCSSSCCCCCS(=O)O ; what log10 of TGI value has been reported?
1.74

And what about the compound O=S(=O)(c1ccccc1)n1c(C(O)c2ccccc2)cc2ccccc21 (stereo unspecified) ?
1.45

And what about the compound S=C(Nc1ccccc1)c1ccc(CN2CCCCC2)s1 ?
1.57
